# ASSAY_METHOD_TEXT: Quantitative High-Throughput drug screen in 47 multiple myeloma cell lines against the NCATS MIPE library collection: KMS12PE_JCRB cell viability assay (AID 1918972); also: nearly all actives have a fitted effect of over 30% in size;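 as to viability: 100% = DMSO only wells and 0% = wells with media alone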
# MEASUREMENT_CONTEXT: KMS12PE myeloma viability, CellTiter-Glo ATP, 48 h; series mostly up to 45.8 µM
# From the text: PI: Beverly A. Mock Ph.D. Laboratory of Cancer Biology and Genetics, Center for Cancer Research, National Cancer Institute, National Institute of Health, Bethesda, Maryland […] 5; Detector; 425V; Luminescence; Viewlux PerkinElmer. […] 1. […] Briefly, the corresponding myeloma cell lines were screened in 1,536-well plates with 500 cells, 5-uL per well for inhibition of cell viability (assessed by measuring ATP levels with CellTiterGlo). […]
Results filed as inconclusive are left out. The source made the active and inactive calls. Calls follow the shape of the dose curve; as a rule, active = well fitted cell-killing curve with a large enough effect; inconclusive = small, poorly fitted or top-dose-only effect, or effect the other way; inactive = no such curve, though single readings can be large or run the other way.
Please reply with one of these outcomes: active, inactive

The examples below pair each entry with its known result.
- COMPOUND: "CCOC1OC(=O)C[C@H]1NC(=O)[C@@H]1CCCN1C(=O)[C@@H](NC(=O)c1ccc(N)c(Cl)c1)C(C)(C)C (some centres undefined)"
  CATEGORY_LABEL: "active"
- COMPOUND: "CN[C@@H](C)C(=O)N[C@H]1CN(C(=O)CC(C)C)CC[C@H]2CC[C@@H](C(=O)NC(c3ccccc3)c3ccccc3)N2C1=O"
  CATEGORY_LABEL: "active"
- COMPOUND: "NS(=O)(=O)c1ccc(NC2=CC(=O)c3ccccc3C2=O)cc1"
  CATEGORY_LABEL: "active"
- COMPOUND: "O=c1cc(CN2CCOCC2)occ1OCCCCCSc1ccnc2cc(C(F)(F)F)ccc12"
  CATEGORY_LABEL: "active"

Test call, this compound: O=C(CCc1ccc(O)cc1)c1c(O)cc(O)cc1O[C@@H]1O[C@H](CO)[C@H](O)[C@H](O)[C@H]1O
inactive

Call for entry CC1(C)CCC[C@@]2(C)[C@@H]1CC[C@@]1(C)OC(=O)C[C@H]21 :
active

Given O=C(CCCCCCC(=O)Nc1ccccc1)NO , state the outcome it received in this test.
active

Call for entry Cc1ccc(C(C)(O)c2nc3ccccc3s2)c(C)c1 (centres undefined) :
inactive

Check the results log: what was the call for NC1CCC(Nc2nc(Nc3ccc(C(=O)N4CCCCC4)cc3)c3ncn(-c4cccc(F)c4)c3n2)CC1 (centres undefined) ?
inactive

---

# ASSAY_METHOD_TEXT: Quantitative High-Throughput drug screen in 47 multiple myeloma cell lines against the NCATS MIPE library collection: XG6_PLB cell viability assay (AID 1919865); also: nearly all actives have a fitted effect of over 40% in size
# MEASUREMENT_CONTEXT: XG6 myeloma viability, CellTiter-Glo ATP luminescence, 48 h; series mostly up to 45.8 µM
Inconclusive results are not listed. Active and inactive are the calls of the source. Calls follow the shape of the dose curve; as a rule, active = well fitted cell-killing curve with a large enough effect; inconclusive = small, poorly fitted or top-dose-only effect, or effect the other way; inactive = no such curve, though single readings can be large or run the other way.
Use one of these outcomes when replying: YES for active, NO for inactive

Use the examples below as a reference point.
- COMPOUND: "CC[C@@]1(O)C[C@H](O[C@H]2C[C@H](N(C)C)[C@H](O[C@H]3C[C@H](O)[C@H](O[C@H]4CCC(=O)[C@H](C)O4)[C@H](C)O3)[C@H](C)O2)c2c(cc3c(c2O)C(=O)c2c(O)cccc2C3=O)[C@@H]1C(=O)OC"
  CATEGORY_LABEL: "YES"
- COMPOUND: "COc1cc(O)c2c(c1)C(=O)c1cc(C)cc(O)c1C2=O"
  CATEGORY_LABEL: "NO"

Record request — test call for COc1cc2ncnc(Nc3ccc(F)c(Cl)c3)c2cc1OCCCN1CCOCC1
YES

Hey, what did the test say about O=c1cc(-c2cccc3c2Sc2ccccc2S3)oc(N2CCOCC2)c1 ?
YES

Please indicate how the test categorized COCCOC(=O)C1=C(C)NC2=C(C(=O)CC(c3ccccc3OC)C2)C1c1cccc(O)c1 (centres undefined) .
YES

Could you check what this test reported for CC(=O)Nc1ccc([C@H](C)C(=O)Nc2ncc(C(C)C)s2)cc1 ?
YES

Please let me know the test result on file for O=C(O)C(O)Cc1ccc(O)c(O)c1 (centres undefined) .
NO

Any idea what this test logged for CCC(CC)[C@H](NC(C)=O)[C@@H]1[C@H](O)[C@@H](C(=O)O)C[C@@H]1N=C(N)N ?
NO

// outcome(item) with item = CC(C)(C)Cn1c(N)nc2ccc(-c3[nH]c(C(C)(C)C)nc3-c3ccc(F)cc3)nc21
YES

Please state the recorded outcome for this compound: O=C(O)c1cc(O)c2c(c1)C(=O)c1cccc(O)c1C2=O
NO

Record lookup: outcome of this test for CN1CCN(CCOc2cc(OC3CCOCC3)c3c(Nc4c(Cl)ccc5c4OCO5)ncnc3c2)CC1 ?
YES

---

# ASSAY_METHOD_TEXT: qHTS of pediatric cancer cell lines to identify multiple opportunities for drug repurposing: Confirmatory screen for Rh41 cells (AID 1347123);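 also: 48 h compound exposure; nearly all actives have a fitted effect of over 60% in size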
# MEASUREMENT_CONTEXT: Rh41 rhabdomyosarcoma cells, viability/cytotoxicity qHTS; series mostly up to 45.9 µM
Records with an inconclusive call do not appear. Active and inactive are the calls of the source. The call rests on the fitted dose curve; in most records, active means well fitted cell-killing curve with a large enough effect; inconclusive means small, poorly fitted or top-dose-only effect; inactive means no such curve, though single readings can be large or run the other way.
Write down the outcome that applies. Available outcomes: active, inactive

Please review the entries below; each comes with its answer.
- COMPOUND: "NS(=O)(=O)c1cccc2c1C(=O)c1cccc(O)c1C2=O"
  CATEGORY_LABEL: "active"
- COMPOUND: "C=C1C(=O)[C@@]23C(CC[C@@H]1[C@H]2O)[C@@]12CO[C@]3(O)[C@@H](O)[C@@H]1C(C)(C)CC[C@@H]2O (some centres undefined)"
  CATEGORY_LABEL: "active"

Hi team, can someone confirm the assay call for CC1(C)S[C@H]2[C@H](NC(=O)[C@@H](N)c3ccc(O)cc3)C(=O)N2[C@@H]1C(=O)O ?
inactive

GET /call?item= Cc1cc(OCCCc2c(C(=O)O)n(Cc3cccnc3)c3c(-c4c(COc5ccc(N6CCN([S+](C)(=O)[O-])CC6)cc5)nn(C)c4C)cccc23)cc(C)c1Cl returns the recorded outcome of this test.
active

---

# ASSAY_METHOD_TEXT: Quantitative High-Throughput drug screen in 47 multiple myeloma cell lines against the NCATS MIPE library collection: INA6_PLB cell viability assay (AID 1918965; also: nearly all actives have a fitted effect of over 55% in size)
# MEASUREMENT_CONTEXT: INA6 myeloma viability, CellTiter-Glo ATP luminescence, 48 h; series mostly up to 45.8 µM
Results filed as inconclusive are left out. Activity calls are given as the source filed them. Calls follow the shape of the dose curve; as a rule, active = well fitted cell-killing curve with a large enough effect; inconclusive = small, poorly fitted or top-dose-only effect, or effect the other way; inactive = no such curve, though single readings can be large or run the other way.
API: response.call in 1 for active, -1 for inactive

Consider the worked cases shown below.
- COMPOUND: "CC(C)(Cc1ccc2ccccc2c1)NC[C@@H](O)COc1cccc(Cl)c1C#N"
  CATEGORY_LABEL: -1
- COMPOUND: "CC(C)(C)NC(=O)Nc1cccc(Nc2ncc(F)c(NC(C)(C)CO)n2)c1"
  CATEGORY_LABEL: 1
- COMPOUND: "NC1=N[C@@]2(c3cc(NC(=O)c4ccc(F)cn4)ccc3F)COC[C@@H]2CS1"
  CATEGORY_LABEL: 1

Which result was noted for this compound in the test: CN[C@@H](C)C(=O)N[C@H]1CN(C(=O)CC(C)C)CC[C@H]2CC[C@@H](C(=O)NC(c3ccccc3)c3ccccc3)N2C1=O
1

Dear all, I need the recorded test outcome for NC(=O)[C@@H](CCC(F)(F)F)N(Cc1ccc(-c2ncon2)cc1F)S(=O)(=O)c1ccc(Cl)cc1 , thank you.
1

Please state the recorded outcome for this compound: CS(=O)(=O)N(Cc1ccco1)CC(O)Cn1c2ccccc2c2ccccc21 (centres undefined)
1

What classification did Oc1ccc(C2=Cc3ccc(O)cc3OC2)cc1 end up with in this test?
1

Test call for this compound, please: CCn1c(C(=O)N(C2CC2)C2CC2)cc2c3c(ncn3C)c(Nc3cc(C)n(C)n3)nc21
1

Status in this test for CO[C@@H](C(=O)N1Cc2[nH]nc(NC(=O)c3ccc(N4CCN(C)CC4)cc3)c2C1)c1ccccc1 ?
1

---

# ASSAY_METHOD_TEXT: Quantitative High-Throughput drug screen in 47 multiple myeloma cell lines against the NCATS MIPE library collection: Karpas25_ECACC cell viability assay (AID 1918968; also: nearly all actives have a fitted effect of over 35% in size)
# MEASUREMENT_CONTEXT: Karpas25 myeloma viability, CellTiter-Glo ATP, 48 h; series mostly up to 45.8 µM
# Text: PI: Beverly A. Mock Ph.D. Laboratory of Cancer Biology and Genetics, Center for Cancer Research, National Cancer Institute, National Institute of Health, Bethesda, Maryland […] 5; Detector; 425V; Luminescence; Viewlux PerkinElmer. […] 1. […] Briefly, the corresponding myeloma cell lines were screened in 1,536-well plates with 500 cells, 5-uL per well for inhibition of cell viability (assessed by measuring ATP levels with CellTiterGlo). […]
Records with an inconclusive call do not appear. Calls of active or inactive are those of the source. Calls follow the shape of the dose curve; as a rule, active = well fitted cell-killing curve with a large enough effect; inconclusive = small, poorly fitted or top-dose-only effect, or effect the other way; inactive = no such curve, though single readings can be large or run the other way.
In this exercise, the only acceptable responses are T (active), F (inactive)

As a guide, the following entries are already answered.
- COMPOUND: "C[C@]12CC[C@@H]3c4ccc(O)cc4CC[C@H]3[C@H]1C[C@@H](O)[C@H]2O"
  CATEGORY_LABEL: "F"
- COMPOUND: "C=C1C(=O)OC2C=C(C)CCC=C(C)CCC12 (stereo not given)"
  CATEGORY_LABEL: "T"
- COMPOUND: "CC(C)C(=O)Oc1ccc(CO)cc1[C@H](CCN(C(C)C)C(C)C)c1ccccc1"
  CATEGORY_LABEL: "F"

Hi team, can someone confirm the assay call for CC(C)OC(=O)CCCC=CC[C@@H]1[C@H](C=C[C@@H](O)COc2cccc(C(F)(F)F)c2)[C@H](O)C[C@@H]1O ?
T

Could you check what this test reported for CCn1cc(C(=O)O)c(=O)c2ccc(C)nc21 ?
F
